TGT: PKA (Homo sapiens, UniProt P17612)
Construct: lines 1-140) and Reaction Biology
ASSAY_PROCEDURE: Dundee kinase panel
Format: biochemical
EXPERIMENTAL_SETUP: read-out: residual activity
Description: Compounds were screened at 1 μM. For key hits, pIC50 values were then determined by HTRF as above. […] Stability in mouse and human liver microsomes was determined by Cyprotex.
# maps each entry to its remaining activity at 1 µM
ATTRIBUTE_MEASURED: remaining activity at 1 µM

* COCCOc1ccc(-c2cn(-c3ccccc3)c3nc[nH]c(=O)c23)cc1 | 109%
* O=C1Cc2c([nH]c3ccc(Br)cc23)-c2ccccc2N1 | 105%
* O=C1Nc2ccc(I)cc2/C1=C/c1cc(Br)c(O)c(Br)c1 | 83%
* Oc1ncnc2c1c(-c1ccccc1)cn2-c1ccccc1 | 103%
